The following molecules are shown together with reported LD50 values.
assay: Acute toxicity test; type: in vivo; conditions: mouse, in vivo, oral, mice

Recorded results for 2 molecules are shown here.
MOLECULE	LD50
OC[C@H]1O[C@H](OC[C@H]2O[C@H](OC[C@H]3O[C@H](O[C@H]4O[C@H](CO)[C@@H](O)[C@H](O)[C@H]4O)[C@H](O)[C@@H](O)[C@@H]3O)[C@H](O)[C@@H](O)[C@@H]2O)[C@H](O)[C@@H](O)[C@@H]1O [α-Isomaltotriosyl α-glucoside]	≥ 50000 mg/kg
OC[C@H]1O[C@H](OC[C@H]2O[C@H](O[C@H]3O[C@H](CO)[C@@H](O)[C@H](O)[C@H]3O)[C@H](O)[C@@H](O)[C@@H]2O)[C@H](O)[C@@H](O)[C@@H]1O	≥ 50000 mg/kg

With those in mind, consider the next molecule.
May I ask what LD50 has been recorded for OC[C@H]1O[C@H](OC[C@H]2O[C@H](O[C@H]3O[C@H](CO[C@H]4O[C@H](CO)[C@@H](O)[C@H](O)[C@H]4O)[C@@H](O)[C@H](O)[C@H]3O)[C@H](O)[C@@H](O)[C@@H]2O)[C@H](O)[C@@H](O)[C@@H]1O [α-Isomaltosyl α-isomaltoside] ? ≥ 50000 mg/kg
